Cited source: PubChem BioAssay AID2060485

system: A375 multi-cell spheroids with HUVEC/MSC, viability; assay: Anticancer human tumor A375 cell line growth inhibition [GQUAD]; settings: second compound 1 µM; first compound 1 µM; active = viability on the fitted dose curve at most 10% of control; inactive = the rest;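 also: spheroids exposed to compounds for seven days before readout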
Pick one and only one: T (active), F (inactive)

Example entries begin here.
COMPOUND	LABEL VALUE
CC(C)(O)C1CCC(Nc2ccc3ncc(-c4cccc(C(F)(F)F)c4)n3n2)CC1 (stereo not drawn) + Cc1cnc(CNC(=O)c2c(=O)c3ccc(N4CCCN(C)CC4)nc3n3c2sc2ccccc23)cn1	F
O=C(NO)c1cnc(N2CCN(S(=O)(=O)c3ccc4ccccc4c3)CC2)nc1 + Cc1[nH]c2ccc(F)cc2c1-c1nc2c3cccnc3c3ncccc3c2[nH]1	T

Give the logged outcome of this assay for the following compound: C=CC(=O)N1CCN(c2nc(=O)n(-c3c(C)ccnc3C(C)C)c3nc(-c4c(O)cccc4F)c(F)cc23)C(C)C1 (stereo not drawn) + Cc1[nH]c2ccc(F)cc2c1-c1nc2c3cccnc3c3ncccc3c2[nH]1
F

----------
Recorded IC50 by entry
tested on: A375 multi-cell spheroids with HUVEC/MSC, viability; assay: Anticancer human tumor A375 cell line growth inhibition [GQUAD]; settings: curve of first compound; second compound 0.1 µM;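 also: spheroids exposed to compounds for seven days before readout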

I would be grateful if you could share the reported IC50 for Cc1cccc(N(C)C(=O)C2C(O)CCN2c2nc(C)cc(C(F)(F)F)c2C#N)c1 (stereo not drawn) + CN(C)c1ccc(Nc2c3ccc(NC(=O)CCN4CCCC4)cc3nc3cc(NC(=O)CCN4CCCC4)ccc23)cc1 .
> 10 µM

Fill in: IC50 of COc1ccc([C@@H](O)c2cc(-c3ncnc4cc(N5CCOCC5)ccc34)c(F)cc2Cl)nn1 + CN(C)c1ccc(Nc2c3ccc(NC(=O)CCN4CCCC4)cc3nc3cc(NC(=O)CCN4CCCC4)ccc23)cc1 is ___
> 10 µM

What does the record list as IC50 for C#Cc1c(F)ccc2cc(O)cc(-c3ncc4c(N5CC6CCC(C5)N6)nc(OCC56CCCN5CC(F)C6)nc4c3F)c12 (stereo not drawn) + Cc1[nH]c2ccc(F)cc2c1-c1nc2c3cccnc3c3ncccc3c2[nH]1 ?
> 10 µM

----------
tested on: A375 multi-cell spheroids with HUVEC/MSC, viability; experiment: Anticancer human tumor A375 cell line growth inhibition [GQUAD]; settings: second compound 0.316 µM; first compound 3.16 µM; stronger effect = lower value;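 also: spheroids exposed to compounds for seven days before readout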
RESULT TYPE: viability, T/C (%)
Just the number in %, nothing appended.

MOLECULE	TARGET OF ASSAY	VALUE REPORTED
CC(=O)O[C@H]1C(=O)[C@@]2(C)[C@H]([C@H](OC(=O)c3ccccc3)[C@]3(O)C[C@H](OC(=O)[C@H](O)[C@@H](NC(=O)c4ccccc4)c4ccccc4)C(C)=C1C3(C)C)[C@]1(OC(C)=O)CO[C@@H]1C[C@@H]2O + CN(C)c1ccc(Nc2c3ccc(NC(=O)CCN4CCCC4)cc3nc3cc(NC(=O)CCN4CCCC4)ccc23)cc1	A375 multi-cell spheroids with HUVEC/MSC, viability	12.8

Lookup: viability, T/C / A375 multi-cell spheroids with HUVEC/MSC, viability / COc1ncnc(C2CC2)c1-c1ncc2cnn(Cc3ccc(-c4nc(C(F)(F)F)cn4C(C)C)cc3)c2n1 + Cc1[nH]c2ccc(F)cc2c1-c1nc2c3cccnc3c3ncccc3c2[nH]1
112

Request: viability, T/C, test system A375 multi-cell spheroids with HUVEC/MSC, viability, entry C=CCn1c(=O)c2cnc(Nc3ccc(N4CCN(C)CC4)cc3)nc2n1-c1cccc(C(C)(C)O)n1 + CN(C)c1ccc(Nc2c3ccc(NC(=O)CCN4CCCC4)cc3nc3cc(NC(=O)CCN4CCCC4)ccc23)cc1
14.2

Lab request: please report viability, T/C under test system A375 multi-cell spheroids with HUVEC/MSC, viability for C=CC(=O)N1CCN(c2nc(=O)n(-c3c(C)ccnc3C(C)C)c3nc(-c4c(O)cccc4F)c(F)cc23)C(C)C1 (centres undefined) + Cc1cnc(CNC(=O)c2c(=O)c3ccc(N4CCCN(C)CC4)nc3n3c2sc2ccccc23)cn1
59.2
